Tested on: SKBR3 (PI3Kα-Wild Type) cell line
Assay: HTRF phospho-AKT(S473) cell assay in SKBR3 cells
Format: cell-based, human
Details: Homo sapiens, SK-BR-3; SKBR3 (PI3Kα-Wild Type) cells, HTRF phospho-AKT(S473), 2 hours compound incubation, PDGF-BB stimulated
Reported IC50 values are given for each entry in this list.

Example entries begin here.
compound	recorded-measurement
Cc1cc([C@@H](C)Nc2ccc(Cl)nc2C(=O)NS(C)(=O)=O)c2nc(N3Cc4cn([C@@H](C)C(F)(F)F)nc4C3)n(C)c(=O)c2c1 (relative stereo)	1 to 5 µM
Cc1cc([C@@H](C)Nc2ccc(Cl)nc2C(=O)NS(C)(=O)=O)c2nc(N3CCC(c4cc(C#N)n(C)n4)CC3)n(C)c(=O)c2c1	1 to 5 µM

Fill in the recorded IC50 for this compound, with SKBR3 (PI3Kα-Wild Type) cell line as test system: COc1cccnc1-n1cc2c(n1)CN(c1nc3c([C@@H](C)Nc4ccc(Cl)nc4C(=O)NS(C)(=O)=O)cc(C)cc3c(=O)n1C)C2
1 to 5 µM

* * *

Target: PI3Kα (Homo sapiens)
Sequence (P42336 whole entry): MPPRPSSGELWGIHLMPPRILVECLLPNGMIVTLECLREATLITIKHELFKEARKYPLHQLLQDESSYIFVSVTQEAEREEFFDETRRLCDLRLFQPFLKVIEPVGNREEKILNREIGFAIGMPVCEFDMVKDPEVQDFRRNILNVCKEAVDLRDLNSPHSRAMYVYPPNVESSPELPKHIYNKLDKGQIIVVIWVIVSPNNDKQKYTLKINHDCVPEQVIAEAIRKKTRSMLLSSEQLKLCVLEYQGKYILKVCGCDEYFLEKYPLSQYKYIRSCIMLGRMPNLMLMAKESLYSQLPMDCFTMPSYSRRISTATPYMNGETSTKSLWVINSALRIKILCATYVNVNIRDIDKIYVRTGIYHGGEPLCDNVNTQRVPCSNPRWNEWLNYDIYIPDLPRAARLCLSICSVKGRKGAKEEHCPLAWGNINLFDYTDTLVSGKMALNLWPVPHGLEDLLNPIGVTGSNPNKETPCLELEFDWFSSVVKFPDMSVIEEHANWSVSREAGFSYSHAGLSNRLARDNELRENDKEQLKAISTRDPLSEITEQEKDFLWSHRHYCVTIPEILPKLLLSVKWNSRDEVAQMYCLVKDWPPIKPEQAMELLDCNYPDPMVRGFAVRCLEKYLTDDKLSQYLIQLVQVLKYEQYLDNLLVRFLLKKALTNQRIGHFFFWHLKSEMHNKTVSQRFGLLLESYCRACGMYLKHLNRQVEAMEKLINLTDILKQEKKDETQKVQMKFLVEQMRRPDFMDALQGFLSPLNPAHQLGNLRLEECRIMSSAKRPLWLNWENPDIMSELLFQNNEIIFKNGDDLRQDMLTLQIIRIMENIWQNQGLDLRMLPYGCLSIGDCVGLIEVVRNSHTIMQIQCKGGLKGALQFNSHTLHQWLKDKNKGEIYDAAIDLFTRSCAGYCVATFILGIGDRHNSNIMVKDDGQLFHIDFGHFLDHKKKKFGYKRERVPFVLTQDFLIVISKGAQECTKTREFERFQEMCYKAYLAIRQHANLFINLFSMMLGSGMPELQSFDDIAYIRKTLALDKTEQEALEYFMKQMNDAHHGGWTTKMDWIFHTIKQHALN
Sequence (P27986 2-724 partner): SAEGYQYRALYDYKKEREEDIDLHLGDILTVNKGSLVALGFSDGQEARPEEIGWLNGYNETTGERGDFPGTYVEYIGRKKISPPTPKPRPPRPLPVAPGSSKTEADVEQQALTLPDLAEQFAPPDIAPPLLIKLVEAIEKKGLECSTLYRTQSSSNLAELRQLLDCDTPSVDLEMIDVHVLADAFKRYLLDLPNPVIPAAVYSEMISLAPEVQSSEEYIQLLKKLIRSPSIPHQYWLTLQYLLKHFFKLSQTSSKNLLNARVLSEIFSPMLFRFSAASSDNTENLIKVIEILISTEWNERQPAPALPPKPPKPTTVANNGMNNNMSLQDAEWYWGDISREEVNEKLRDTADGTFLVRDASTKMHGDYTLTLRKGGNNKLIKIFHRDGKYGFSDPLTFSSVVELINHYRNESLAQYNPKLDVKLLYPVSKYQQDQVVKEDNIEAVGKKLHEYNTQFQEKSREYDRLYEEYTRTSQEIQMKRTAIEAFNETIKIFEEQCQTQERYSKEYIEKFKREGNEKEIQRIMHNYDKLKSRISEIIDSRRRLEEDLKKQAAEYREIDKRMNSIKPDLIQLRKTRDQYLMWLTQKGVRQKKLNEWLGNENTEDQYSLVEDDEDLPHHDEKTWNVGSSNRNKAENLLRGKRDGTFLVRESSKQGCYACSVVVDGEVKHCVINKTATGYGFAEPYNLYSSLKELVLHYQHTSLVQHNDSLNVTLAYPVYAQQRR
Experiment: PI3Kα enzyme assay (Transcreener ADP2 TR-FRET Red Assay)
Conditions: purified recombinant full-length protein; 2 hours pre-incubation with compound; read-out: PI3Kα WT IC50
Experimental: Activity against PI3Kα and PI3Kα H1047R enzymes were determined in biochemical assays using purified recombinant full-length proteins with the Transcreener ADP^2 TR-FRET Red Assay from Bellbrook Labs. (Catalogue number 3011-10K). Test compounds were dissolved in DMSO and were tested in 11 point 1:3 serial dilutions, typical final concentration range from 50,000 nM to 0.85 nM. […] The plates were read using a multimode reader and the emission ratio of 665 nm to 615 nm was determined. […]
Reported IC50 values are given for each entry in this list.

Example entries begin here.
molecule	reported-property	recorded-measurement
Cc1cc([C@@H](C)Nc2ccc(Cl)nc2C(=O)NS(C)(=O)=O)c2nc(N3CCC(F)(F)C[C@@H]3C)n(C)c(=O)c2c1 (mixture of isomers) [Compound 12]	IC50	≥ 1000 nM
Cc1cc([C@@H](C)Nc2ccc(Cl)nc2C(=O)NS(C)(=O)=O)c2nc(N3CC4(C3)CC(F)(F)C4)n(C)c(=O)c2c1 [Compound 9]	IC50	≥ 1000 nM
CNS(=O)(=O)NC(=O)c1nc(Cl)ccc1N[C@H](C)c1cc(C)cc2c(=O)n(C)c(N3Cc4ccc(F)cc4C3)nc12 [Compound 73]	IC50	≥ 1000 nM
Cc1cc([C@@H](C)Nc2ccc(Cl)nc2C(=O)NS(C)(=O)=O)c2nc(N3Cc4cnn(CC5CC5)c4C3)n(C)c(=O)c2c1 [Compound 47]	IC50	500 to 1000 nM
CC(=O)NS(=O)(=O)c1nc(Cl)ccc1N[C@H](C)c1cc(C)cc2c(=O)n(C)c(N3Cc4ccc(F)cc4C3)nc12 [Compound 74]	IC50	≥ 1000 nM

Entry Cc1cc([C@@H](C)Nc2ccc(Cl)nc2C(=O)NS(C)(=O)=O)c2nc(-c3cccnc3C)n(C)c(=O)c2c1 [Compound 85] : reported IC50 = ?
≥ 1000 nM

Entry Cc1cc([C@@H](C)Nc2ccc[nH]c2=O)c2nc(N3Cc4ccc(F)cc4C3)n(C)c(=O)c2c1 [Compound 94] : reported IC50 = ?
≥ 1000 nM

Entry Cc1cc([C@@H](C)Nc2ccc(Cl)nc2C(=O)NS(C)(=O)=O)c2nc(N3CCc4ccccc4[C@H]3C)n(C)c(=O)c2c1 (mixture of isomers) [Compound 19] : reported IC50 = ?
≥ 1000 nM

Entry Cc1cc([C@@H](C)Nc2ccc(Cl)nc2C(=O)NS(C)(=O)=O)c2nc(NC3CCCC3)n(C)c(=O)c2c1 [Compound 11] : reported IC50 = ?
≥ 1000 nM

Entry CCn1ncc2c1CN(c1nc3c([C@@H](C)Nc4ccc(Cl)nc4C(=O)NS(C)(=O)=O)cc(C)cc3c(=O)n1C)C2 [Compound 45] : reported IC50 = ?
500 to 1000 nM

Entry Cc1cc([C@H](C)Nc2cn(C)nc2C(=O)NS(C)(=O)=O)c2nc(N3Cc4ccc(F)cc4C3)n(C)c(=O)c2c1 (single isomer, unassigned) [Compound 107] : reported IC50 = ?
≥ 1000 nM

Entry Cc1cc([C@@H](C)Nc2ccc(Cl)nc2C(=O)NS(C)(=O)=O)c2nc(OCC3CC3)n(C)c(=O)c2c1 [Compound 51] : reported IC50 = ?
≥ 1000 nM

Entry Cc1cc([C@@H](C)Nc2cc(C)c(Cl)nc2C(=O)NS(C)(=O)=O)c2nc(N3Cc4ccc(F)cc4C3)n(C)c(=O)c2c1 [Compound 35] : reported IC50 = ?
≥ 1000 nM
